So I've got a bunch of sequences here, and I need their self-aminoacylation values.
- Test system: biotinyl-Trp-oxazolone
- experiment-summary: self-aminoacylation, catalytic enhancement (BWO) (fold over background); higher = more active; k-Seq, kA / k0A0; sequences stand for … in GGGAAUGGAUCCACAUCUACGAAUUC…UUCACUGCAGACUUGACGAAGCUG
Fewer inactive variants are shown than the library holds.
One number for each entry.

Worked set:
[
  {
    "sequence-data": "CUACUUCAAACAAUCAGCCUG [Fam1A.1 aminoacylation ribozyme variant]",
    "self-aminoacylation": 9.56
  },
  {
    "sequence-data": "AGGUUUGCUAAUAAUCGCAAG [Fam3.1 aminoacylation ribozyme variant]",
    "self-aminoacylation": 0.725
  }
]

stdin: Recorded self-aminoacylation for CUAAUUCAAACAAUCGGCCUG [Fam1A.1 aminoacylation ribozyme variant] with biotinyl-Trp-oxazolone, please?
stdout: 3.89

====

- Test system: biotinyl-Trp-oxazolone
- experiment-summary: self-aminoacylation, catalytic enhancement (BWO) (fold over background); higher = more active; k-Seq, kA / k0A0; sequences stand for … in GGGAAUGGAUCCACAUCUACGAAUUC…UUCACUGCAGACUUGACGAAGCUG
Variants at the floor of the assay were thinned out.
So I've got a bunch of sequences here, and I need their self-aminoacylation values.
One number for each entry.

Worked set:
[
  {
    "sequence-data": "CCGCAAUUCAAGCAAUCGGUC [Fam1B.1 aminoacylation ribozyme variant]",
    "measured-on": "biotinyl-Trp-oxazolone",
    "self-aminoacylation": 14.2
  },
  {
    "sequence-data": "AUAACCCUGGUCAUAGAGUGA [Fam2.1 aminoacylation ribozyme variant]",
    "measured-on": "biotinyl-Trp-oxazolone",
    "self-aminoacylation": 9.78
  },
  {
    "sequence-data": "AUACACCUAGGUCAUAGGGUG [Fam2.2 aminoacylation ribozyme variant]",
    "measured-on": "biotinyl-Trp-oxazolone",
    "self-aminoacylation": 2.14
  }
]

Parameters: items (list). Returns: self-aminoacylation for each item.
1. AAGUUAUCUAAUAGUCGCAAG [Fam3.1 aminoacylation ribozyme variant]
2. AUUCACCUAAGUCAACGGGUG [Fam2.2 aminoacylation ribozyme variant]
3. AUUACCCCGGUCAUAGAGUGA [Fam2.1 aminoacylation ribozyme variant]

stdout:
[1.36, 3.21, 8.65]

Parameters: items (list). Returns: self-aminoacylation for each item.
1. AAGUUUGCUAAUAGUCGUUAG [Fam3.1 aminoacylation ribozyme variant]
2. AUUCACCUAAGUCAUAGGGUG [Fam2.2 aminoacylation ribozyme variant]
3. CUACUUCACAGAAUCGGUCUG [Fam1A.1 aminoacylation ribozyme variant]

stdout:
[1.05, 1.3, 0.917]

====

- Test system: biotinyl-Phe-oxazolone
- experiment-summary: self-aminoacylation, catalytic enhancement (BFO) (fold over background); higher = more active; k-Seq, kA / k0A0; sequences stand for … in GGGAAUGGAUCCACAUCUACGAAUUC…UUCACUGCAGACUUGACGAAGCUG
Fewer inactive variants are shown than the library holds.
Records here are stratified by self-aminoacylation; strata: low class = under 3, middle class = from 3 up to 20, high class = 20 and over

stdin: Just checking, what class would you give CCACACUUAAAGCAAUCGGUG [Fam1B.1 aminoacylation ribozyme variant] here?
stdout: high class

stdin: Just checking, what class would you give ACUCACCUAGAUCAUCGGGUG [Fam2.2 aminoacylation ribozyme variant] here?
stdout: high class

stdin: Just checking, what class would you give UAGUUUGCUAAUAAUCGCAAG [Fam3.1 aminoacylation ribozyme variant] here?
stdout: low class

stdin: Just checking, what class would you give CUGCUUCAAACAUUCGGUCUG [Fam1A.1 aminoacylation ribozyme variant] here?
stdout: low class

stdin: Just checking, what class would you give AUUACCCUGAUCAUCGAGUUA [Fam2.1 aminoacylation ribozyme variant] here?
stdout: low class
